Data provenance is ChEMBL document CHEMBL4602617.

system_name: High affinity nerve growth factor receptor (Homo sapiens, UniProt P04629)
Sequence (P04629 whole entry, the tested form may be a part): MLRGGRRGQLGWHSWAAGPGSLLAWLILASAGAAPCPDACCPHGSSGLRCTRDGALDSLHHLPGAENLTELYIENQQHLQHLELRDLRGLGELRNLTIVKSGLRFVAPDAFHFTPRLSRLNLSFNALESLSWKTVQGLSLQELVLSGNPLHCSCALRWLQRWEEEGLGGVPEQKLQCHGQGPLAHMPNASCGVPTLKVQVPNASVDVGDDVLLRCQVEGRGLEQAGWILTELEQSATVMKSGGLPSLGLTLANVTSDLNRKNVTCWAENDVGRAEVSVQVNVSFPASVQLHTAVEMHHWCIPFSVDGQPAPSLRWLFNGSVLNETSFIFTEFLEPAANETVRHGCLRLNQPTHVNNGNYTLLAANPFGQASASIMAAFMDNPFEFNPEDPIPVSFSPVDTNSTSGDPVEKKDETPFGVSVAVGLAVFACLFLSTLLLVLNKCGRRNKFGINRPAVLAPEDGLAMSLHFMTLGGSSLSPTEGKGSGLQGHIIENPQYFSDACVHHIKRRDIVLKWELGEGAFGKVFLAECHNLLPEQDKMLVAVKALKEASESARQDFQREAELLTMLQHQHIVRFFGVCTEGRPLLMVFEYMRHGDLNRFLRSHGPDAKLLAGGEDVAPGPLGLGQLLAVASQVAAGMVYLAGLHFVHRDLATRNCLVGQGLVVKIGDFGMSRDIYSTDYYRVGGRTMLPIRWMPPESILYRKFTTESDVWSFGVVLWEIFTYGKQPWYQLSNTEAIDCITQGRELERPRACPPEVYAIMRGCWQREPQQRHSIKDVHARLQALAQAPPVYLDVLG
test_name: Inhibition of recombinant human His-tagged NTRK1 cytoplasmic domain expressed in baculovirus expression system using FRET-labeled tyr 07 peptide as substrate measured after 1 hr in presence of ATP by Z'-lyte assay
pIC50: −log10 of the molar value.
attribute_measured: pIC50

## Task Reported pIC50 for `C[C@@H]1C[C@H]1C(=O)N1CCN(c2cnc(C#N)c(-c3cnn(C)c3)n2)C[C@H]1C` : what is it?
## Result < 4.00

* * *

system_name: G protein-coupled receptor kinase 6 (Homo sapiens, UniProt P43250)
Sequence (P43250 whole entry): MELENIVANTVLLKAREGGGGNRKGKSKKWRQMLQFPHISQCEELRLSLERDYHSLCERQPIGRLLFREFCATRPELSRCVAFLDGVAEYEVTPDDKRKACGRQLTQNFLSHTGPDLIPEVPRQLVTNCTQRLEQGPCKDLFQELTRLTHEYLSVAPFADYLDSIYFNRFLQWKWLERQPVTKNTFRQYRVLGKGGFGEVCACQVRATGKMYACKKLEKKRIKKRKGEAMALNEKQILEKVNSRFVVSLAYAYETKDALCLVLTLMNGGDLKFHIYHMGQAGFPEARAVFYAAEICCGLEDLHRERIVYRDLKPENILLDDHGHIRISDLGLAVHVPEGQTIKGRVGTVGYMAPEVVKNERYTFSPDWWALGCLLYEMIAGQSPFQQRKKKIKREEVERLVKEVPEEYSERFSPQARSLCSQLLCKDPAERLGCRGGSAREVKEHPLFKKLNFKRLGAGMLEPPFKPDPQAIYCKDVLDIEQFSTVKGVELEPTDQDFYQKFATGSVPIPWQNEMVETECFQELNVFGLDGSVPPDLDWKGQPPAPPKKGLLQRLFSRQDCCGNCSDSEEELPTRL
test_name: Inhibition of recombinant full length human GST-tagged GRK6 expressed in baculovirus expression system using serine/threonine-16 peptide as substrate incubated for 60 mins in presence of ATP by Z'-LYTE assay
pIC50: −log10 of the molar value.
attribute_measured: pIC50

## Task Consider the compound shown here: `C[C@@H]1C[C@H]1C(=O)N1CCN(c2cnc(C#N)c(-c3cnn(C)c3)n2)C[C@H]1C` What is its recorded pIC50?
## Result < 4.00

* * *

system_name: Hepatocyte growth factor receptor (Homo sapiens)
Sequence (P08581 whole entry, the tested form may be a part): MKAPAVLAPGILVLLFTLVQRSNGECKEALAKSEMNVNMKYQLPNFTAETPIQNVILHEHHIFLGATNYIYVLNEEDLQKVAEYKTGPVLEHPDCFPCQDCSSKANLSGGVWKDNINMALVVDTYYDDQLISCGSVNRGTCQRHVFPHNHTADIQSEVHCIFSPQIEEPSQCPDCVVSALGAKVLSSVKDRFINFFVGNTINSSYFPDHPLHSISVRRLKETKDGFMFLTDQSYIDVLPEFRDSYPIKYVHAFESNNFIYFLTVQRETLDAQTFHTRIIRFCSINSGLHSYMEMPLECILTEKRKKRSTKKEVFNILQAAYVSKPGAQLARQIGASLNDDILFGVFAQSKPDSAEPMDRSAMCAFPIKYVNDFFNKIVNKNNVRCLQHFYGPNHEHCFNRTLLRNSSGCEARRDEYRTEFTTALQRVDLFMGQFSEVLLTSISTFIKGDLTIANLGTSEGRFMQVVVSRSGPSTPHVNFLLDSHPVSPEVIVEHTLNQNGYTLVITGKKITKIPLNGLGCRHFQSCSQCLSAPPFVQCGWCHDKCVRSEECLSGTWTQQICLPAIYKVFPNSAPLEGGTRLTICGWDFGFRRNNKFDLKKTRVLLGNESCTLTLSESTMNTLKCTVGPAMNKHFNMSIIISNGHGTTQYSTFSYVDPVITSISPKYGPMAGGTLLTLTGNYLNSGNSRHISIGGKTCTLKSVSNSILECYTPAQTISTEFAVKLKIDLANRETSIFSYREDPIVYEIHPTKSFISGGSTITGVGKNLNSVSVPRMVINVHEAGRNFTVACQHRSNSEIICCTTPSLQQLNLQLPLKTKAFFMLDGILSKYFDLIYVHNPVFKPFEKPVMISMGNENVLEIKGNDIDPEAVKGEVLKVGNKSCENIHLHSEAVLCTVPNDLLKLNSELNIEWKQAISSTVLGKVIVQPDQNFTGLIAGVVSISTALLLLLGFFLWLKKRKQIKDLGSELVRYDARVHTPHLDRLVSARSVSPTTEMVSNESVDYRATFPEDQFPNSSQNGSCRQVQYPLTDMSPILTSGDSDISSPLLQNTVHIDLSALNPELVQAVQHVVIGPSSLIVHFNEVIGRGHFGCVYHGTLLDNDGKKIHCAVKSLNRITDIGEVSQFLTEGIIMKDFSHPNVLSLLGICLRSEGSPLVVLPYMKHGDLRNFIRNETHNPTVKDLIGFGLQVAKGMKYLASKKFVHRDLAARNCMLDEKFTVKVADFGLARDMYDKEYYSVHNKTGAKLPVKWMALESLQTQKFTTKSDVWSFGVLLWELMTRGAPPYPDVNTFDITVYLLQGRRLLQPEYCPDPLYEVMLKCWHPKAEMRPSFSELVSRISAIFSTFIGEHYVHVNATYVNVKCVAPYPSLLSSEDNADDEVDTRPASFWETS
test_name: Inhibition of human recombinant His-tagged cMET cytoplasmic domain expressed in baculovirus expression system using tyrosine 6 peptide as substrate after 60 mins in presence of ATP FRET based Z'-LYTE assay
attribute_measured: IC50

## Task // IC50 lookup, key: `C[C@@H]1C[C@H]1C(=O)N1CCN(c2cnc(C#N)c(-c3cnn(C)c3)n2)C[C@H]1C`
## Result > 100 µM

* * *

system_name: Proto-oncogene tyrosine-protein kinase Src (Homo sapiens)
Sequence (P12931 2-536 limits assumed): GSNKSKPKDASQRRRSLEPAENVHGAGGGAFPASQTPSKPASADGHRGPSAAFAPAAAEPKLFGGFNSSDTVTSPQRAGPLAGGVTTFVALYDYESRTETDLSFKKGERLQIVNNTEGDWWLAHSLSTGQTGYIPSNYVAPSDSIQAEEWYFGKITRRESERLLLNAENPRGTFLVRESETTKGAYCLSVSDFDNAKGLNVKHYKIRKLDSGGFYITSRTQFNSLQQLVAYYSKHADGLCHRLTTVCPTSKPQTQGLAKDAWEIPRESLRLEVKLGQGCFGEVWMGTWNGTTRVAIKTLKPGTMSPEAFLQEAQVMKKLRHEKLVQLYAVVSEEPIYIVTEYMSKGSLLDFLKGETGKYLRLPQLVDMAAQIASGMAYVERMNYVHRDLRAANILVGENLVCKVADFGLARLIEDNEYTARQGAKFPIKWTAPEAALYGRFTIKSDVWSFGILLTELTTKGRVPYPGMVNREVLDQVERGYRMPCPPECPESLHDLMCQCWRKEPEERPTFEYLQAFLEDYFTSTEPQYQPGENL
test_name: Inhibition of recombinant full length human His-tagged SRC expressed in baculovirus expression system using tyrosine-2 peptide as substrate incubated for 60 mins in presence of ATP by Z'-LYTE assay
pIC50: −log10 of the molar value.
attribute_measured: pIC50

## Task Checklist item: pIC50 tested on Proto-oncogene tyrosine-protein kinase Src (Homo sapiens), entry `C[C@@H]1C[C@H]1C(=O)N1CCN(c2cnc(C#N)c(-c3cnn(C)c3)n2)C[C@H]1C` , value?
## Result < 4.00

* * *

test_name: Volume of drug distribution in dog at 0.5 mg/kg, iv or 1 mg/kg, po
Format: ADME, organism-based, Canis lupus familiaris
conditions_used: in vivo
attribute_measured: Vd (L/kg)
Give the number; L/kg is assumed, so skip it.

## Task Could you tell me which Vd is on file for `C[C@@H]1C[C@H]1C(=O)N1CCN(c2cnc(C#N)c(-c3cnn(C)c3)n2)C[C@H]1C` ?
## Result 1.1

* * *

system_name: cAMP-dependent protein kinase catalytic subunit PRKX (Homo sapiens)
Sequence (P51817 whole entry): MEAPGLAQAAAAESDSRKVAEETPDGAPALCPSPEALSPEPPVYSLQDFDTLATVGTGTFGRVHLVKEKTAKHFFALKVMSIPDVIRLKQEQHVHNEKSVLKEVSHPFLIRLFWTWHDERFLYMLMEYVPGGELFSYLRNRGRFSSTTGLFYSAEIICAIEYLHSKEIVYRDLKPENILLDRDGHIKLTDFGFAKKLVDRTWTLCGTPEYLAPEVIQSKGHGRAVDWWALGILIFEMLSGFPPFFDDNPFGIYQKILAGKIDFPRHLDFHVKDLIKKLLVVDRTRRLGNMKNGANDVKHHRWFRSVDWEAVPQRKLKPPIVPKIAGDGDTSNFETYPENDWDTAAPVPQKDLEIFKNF
test_name: Inhibition of recombinant full length human GST-tagged PRKX expressed in baculovirus expression system using serine/threonine-1 peptide as substrate incubated for 60 mins in presence of ATP by Z'-LYTE assay
pIC50: −log10 of the molar value.
attribute_measured: pIC50

## Task Quick one: pIC50 for `C[C@@H]1C[C@H]1C(=O)N1CCN(c2cnc(C#N)c(-c3cnn(C)c3)n2)C[C@H]1C` ?
## Result < 4.00

* * *

system_name: Rho-associated protein kinase 1 (Homo sapiens, UniProt Q13464)
Sequence (Q13464 whole entry, the tested form may be a part): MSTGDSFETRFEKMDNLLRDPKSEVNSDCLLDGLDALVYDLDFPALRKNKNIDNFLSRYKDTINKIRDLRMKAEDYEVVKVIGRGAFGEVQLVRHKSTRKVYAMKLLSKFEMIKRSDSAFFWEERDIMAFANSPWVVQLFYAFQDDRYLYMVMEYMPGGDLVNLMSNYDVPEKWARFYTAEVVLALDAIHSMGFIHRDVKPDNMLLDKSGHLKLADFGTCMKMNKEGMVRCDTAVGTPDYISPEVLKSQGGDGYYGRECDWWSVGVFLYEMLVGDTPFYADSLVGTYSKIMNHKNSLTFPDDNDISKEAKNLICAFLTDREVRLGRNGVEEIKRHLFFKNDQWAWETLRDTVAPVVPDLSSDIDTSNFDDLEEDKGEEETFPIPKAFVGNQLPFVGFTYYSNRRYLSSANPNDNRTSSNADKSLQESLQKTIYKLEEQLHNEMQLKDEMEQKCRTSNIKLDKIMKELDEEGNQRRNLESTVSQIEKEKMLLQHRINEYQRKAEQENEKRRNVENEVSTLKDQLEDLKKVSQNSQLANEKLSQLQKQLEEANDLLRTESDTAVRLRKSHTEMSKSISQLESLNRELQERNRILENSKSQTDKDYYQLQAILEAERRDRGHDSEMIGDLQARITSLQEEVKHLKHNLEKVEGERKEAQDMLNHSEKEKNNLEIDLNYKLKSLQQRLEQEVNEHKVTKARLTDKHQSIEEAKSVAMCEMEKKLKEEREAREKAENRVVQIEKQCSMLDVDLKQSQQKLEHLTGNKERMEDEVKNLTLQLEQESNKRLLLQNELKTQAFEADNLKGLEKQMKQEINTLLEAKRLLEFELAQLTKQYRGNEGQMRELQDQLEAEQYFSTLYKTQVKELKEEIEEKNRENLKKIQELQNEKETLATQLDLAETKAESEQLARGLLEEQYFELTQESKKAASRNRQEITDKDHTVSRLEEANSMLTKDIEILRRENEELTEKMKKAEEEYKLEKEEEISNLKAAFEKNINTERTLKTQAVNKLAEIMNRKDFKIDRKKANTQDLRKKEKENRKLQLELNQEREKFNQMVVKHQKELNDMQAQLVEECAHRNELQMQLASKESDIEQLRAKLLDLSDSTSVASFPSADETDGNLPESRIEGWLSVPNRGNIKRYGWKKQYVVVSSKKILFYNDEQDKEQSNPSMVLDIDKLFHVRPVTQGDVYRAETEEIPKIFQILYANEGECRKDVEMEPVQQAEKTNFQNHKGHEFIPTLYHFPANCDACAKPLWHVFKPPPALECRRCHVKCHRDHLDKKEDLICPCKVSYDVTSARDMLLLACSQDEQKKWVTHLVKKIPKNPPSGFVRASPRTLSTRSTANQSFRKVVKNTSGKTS
test_name: Inhibition of recombinant human GST-tagged ROCK1 catalytic domain expressed in baculovirus expression system using serine/threonine-7 peptide as substrate incubated for 60 mins in presence of ATP by Z'-LYTE assay
attribute_measured: IC50

## Task Which measured IC50 value corresponds to `C[C@@H]1C[C@H]1C(=O)N1CCN(c2cnc(C#N)c(-c3cnn(C)c3)n2)C[C@H]1C` ?
## Result > 100 µM
